subjectOfTest: dopamine transporter (DAT) (Rattus norvegicus (Rat), UniProt P23977)
Sequence (P23977 whole entry): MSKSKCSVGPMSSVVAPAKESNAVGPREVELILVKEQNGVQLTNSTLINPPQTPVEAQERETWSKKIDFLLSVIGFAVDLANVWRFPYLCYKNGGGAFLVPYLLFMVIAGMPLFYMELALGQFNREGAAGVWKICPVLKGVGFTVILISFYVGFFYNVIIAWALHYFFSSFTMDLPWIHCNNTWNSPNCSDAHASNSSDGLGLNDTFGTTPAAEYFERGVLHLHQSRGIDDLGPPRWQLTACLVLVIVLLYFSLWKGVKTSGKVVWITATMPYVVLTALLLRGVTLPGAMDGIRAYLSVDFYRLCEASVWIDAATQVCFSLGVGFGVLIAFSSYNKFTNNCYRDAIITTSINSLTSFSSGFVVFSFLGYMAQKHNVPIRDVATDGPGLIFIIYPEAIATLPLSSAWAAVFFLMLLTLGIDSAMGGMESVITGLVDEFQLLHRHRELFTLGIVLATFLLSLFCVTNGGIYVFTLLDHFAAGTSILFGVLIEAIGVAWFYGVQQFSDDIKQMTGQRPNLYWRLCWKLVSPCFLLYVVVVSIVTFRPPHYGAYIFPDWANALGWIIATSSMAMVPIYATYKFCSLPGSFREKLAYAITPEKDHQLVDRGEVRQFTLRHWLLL
testDetails: [3H]dopamine (DA) uptake inhibition in rat brain (caudate) synaptosomes
conditionsUsed: rat caudate synaptosomes, 5 nM [3H]dopamine, mean ± SD
pEC50: −log10 of the molar value.

molecule: CS(=O)(=O)Nc1ccc(-c2nc(NCCc3ccccc3)c3ccccc3n2)cc1
pEC50: 6.80
--
molecule: Cc1cc(NS(C)(=O)=O)ccc1-c1nc(NCC(c2ccncc2)c2ccncc2)c2ccccc2n1
pEC50: 7.08
--
molecule: CS(=O)(=O)Nc1ccc(-c2nc(NCC(Cc3ccccc3)c3ccccc3)c3ccccc3n2)cc1 (centres unmarked)
pEC50: 7.24
--
molecule: Cc1cc(NS(C)(=O)=O)ccc1-c1nc(NCC(c2ccccc2)c2ccncc2)c2ccccc2n1 (centres unmarked)
pEC50: 8.13
--
molecule: CN1CCN(C(CNc2nc(-c3ccc(NS(C)(=O)=O)cc3)nc3ccccc23)c2ccccc2)CC1 (centres unmarked)
pEC50: 7.21
--
molecule: CN(C)c1ccc(-c2nc(NCC(Cc3ccccc3)c3ccccc3)c3ccccc3n2)cc1 (centres unmarked)
pEC50: 7.41
--
molecule: CS(=O)(=O)Nc1ccc(-c2nc(NC(CCc3ccccc3)c3ccccc3)c3ccccc3n2)cc1 (centres unmarked)
pEC50: 7.15
--
molecule: CS(=O)(=O)Nc1ccc(-c2nc(NCC(c3cccnc3)c3ccc[nH]3)c3ccccc3n2)cc1 (centres unmarked)
pEC50: 6.69

---

# DA Uptake Emax annotations
subjectOfTest: dopamine transporter (DAT) (Rattus norvegicus (Rat))
testDetails: [3H]dopamine (DA) uptake inhibition in rat brain (caudate) synaptosomes
Assay type: biochemical
conditionsUsed: rat caudate synaptosomes, 5 nM [3H]dopamine, mean ± SD
Protocol: Uptake inhibition assay for the dopamine transporter was conducted in rat brain synaptosomes as described elsewhere with minor modifications (Rothman et al., Synapse 39, 32-41 (2001)). Freshly removed caudate was homogenized in 10% ice-cold sucrose with 12 strokes of a hand-held Potter-Elvehjem homogenizer followed by centrifugation at 1000×g for 10 min. […] Transporter activity was assessed using 5 nM [^3H]dopamine. […] Nonspecific uptake was measured by incubating in the presence of 10 μM indatraline. […]

compound: CC(C)C(CNc1nc(-c2ccc(NS(C)(=O)=O)cc2)nc2ccccc12)c1ccccc1 (centres unmarked)
quantityUnit: % I
DA Uptake Emax: 78
--
compound: CS(=O)(=O)Nc1ccc(-c2nc(NCC(c3ccccn3)c3ccc[nH]3)c3ccccc3n2)cc1 (centres unmarked)
quantityUnit: % I
DA Uptake Emax: 73
--
compound: CN(C)c1ccc(-c2nc(NC(Cc3ccccc3)c3ccccc3)c3ccccc3n2)cc1 (centres unmarked)
quantityUnit: % I
DA Uptake Emax: 72
--
compound: Cc1ccc(-c2nc(NCC(c3ccccc3)c3cccc(Cl)n3)c3ccccc3n2)cc1 (centres unmarked)
quantityUnit: % I
DA Uptake Emax: 100
--
compound: CN(C)c1ccc(-c2nc(NCC(c3ccccc3)N3CCOCC3)c3ccccc3n2)cc1 (centres unmarked)
quantityUnit: % I
DA Uptake Emax: 75

---

subjectOfTest: DAT (Rattus norvegicus (Rat))
testDetails: Inhibition of [3H]WIN35428 binding to rat caudate DAT
conditionsUsed: [3H]WIN35428; mean ± S.D.; n = 3
Quick list: Emax per entry.

molecule: Cc1cc2nccn2cc1-c1nc(NCC(c2ccccc2)c2ccccc2)c2ccccc2n1
Emax (%): 79
//
molecule: CS(=O)(=O)Nc1ccc(-c2nc(NCC(c3ccccc3)c3ccccc3)c3ccccc3n2)cc1
Emax (%): 65
//
molecule: c1ccc(C(CNc2nc(-c3ccc4nccn4c3)nc3ccccc23)c2ccc[nH]2)cc1 (centres unmarked)
Emax (%): 42
//
molecule: CSc1ncc(-c2nc(NCC(c3ccccc3)c3ccccc3)c3ccccc3n2)cn1
Emax (%): 63
//
molecule: Cc1cc2nccn2cc1-c1nc(NCC(c2ccccc2)c2ccc[nH]2)c2ccccc2n1 (centres unmarked)
Emax (%): 91
//
molecule: CN(C)c1ncc(-c2nc(NCC(c3ccccc3)c3ccccc3)c3ccccc3n2)cn1
Emax (%): 76
//
molecule: c1ccc(C(CNc2nc(-c3cnc4nccn4c3)nc3ccccc23)c2ccncc2)cc1 (centres unmarked)
Emax (%): 25
//
molecule: c1ccc(C(CCNc2nc(-c3ccc4[nH]ccc4c3)nc3ccccc23)c2ccccc2)cc1
Emax (%): 94

---

Recorded measurements of Emax, one per entry
subjectOfTest: norepinephrine transporter (NET) (Rattus norvegicus)
Sequence (Q63380 1-617): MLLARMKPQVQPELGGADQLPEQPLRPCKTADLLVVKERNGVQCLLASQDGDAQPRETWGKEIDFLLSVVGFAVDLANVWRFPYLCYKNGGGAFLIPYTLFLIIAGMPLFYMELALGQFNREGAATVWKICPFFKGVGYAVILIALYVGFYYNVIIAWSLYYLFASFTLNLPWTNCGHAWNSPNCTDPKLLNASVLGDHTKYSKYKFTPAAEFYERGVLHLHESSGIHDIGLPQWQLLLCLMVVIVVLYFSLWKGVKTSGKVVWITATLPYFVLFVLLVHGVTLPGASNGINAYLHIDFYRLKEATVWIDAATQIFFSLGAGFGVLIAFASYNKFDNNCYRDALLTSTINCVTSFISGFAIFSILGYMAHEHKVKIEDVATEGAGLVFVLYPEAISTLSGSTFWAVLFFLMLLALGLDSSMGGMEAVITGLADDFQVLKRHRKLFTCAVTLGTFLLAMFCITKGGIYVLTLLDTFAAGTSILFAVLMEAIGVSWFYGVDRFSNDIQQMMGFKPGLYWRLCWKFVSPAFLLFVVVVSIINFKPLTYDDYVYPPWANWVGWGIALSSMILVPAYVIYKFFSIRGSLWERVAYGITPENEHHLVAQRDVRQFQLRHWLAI
testDetails: [3H]norepinephrine (NE) uptake inhibition in rat brain synaptosomes
Format: biochemical
conditionsUsed: read-out: NET Uptake Emax
measuredEndpoint: Emax (%)

compound: CS(=O)(=O)Nc1ccc(-c2nc(NCC(c3ccccc3)c3ccccc3)c3ccccc3n2)c(Cl)c1 [Compound 53]
experimentalValue: 67

compound: Cc1cc2nccn2cc1-c1nc(NCC(O)(c2ccccc2)c2ccccc2)c2ccccc2n1 [SRI-31143]
experimentalValue: 69

compound: OC(CNc1nc(-c2cnc3nccn3c2)nc2ccccc12)(c1ccccc1)c1ccccc1 [SRI-30508]
experimentalValue: 76

compound: CN(C)c1ncc(-c2nc(NCC(c3ccccc3)c3ccccc3)c3ccccc3n2)cn1 [SRI-29153]
experimentalValue: 73

---

Quick reference: Emax of the listed items.
subjectOfTest: dopamine transporter (DAT) (Rattus norvegicus (Rat))
testDetails: [3H]dopamine (DA) uptake inhibition in rat brain (caudate) synaptosomes
Assay type: biochemical
conditionsUsed: mean ± S.D.; n = 3; read-out: DAT Uptake Emax
measuredEndpoint: Emax (%)

compound: CS(=O)(=O)Nc1ccc(-c2nc(NCC(c3ccccc3)c3ccccc3)c3ccccc3n2)c(Cl)c1 [Compound 53]
subjectOfTest: dopamine transporter (DAT) (Rattus norvegicus (Rat))
measuredEndpoint: Emax
experimentalValue: 67

compound: Cc1cc2nccn2cc1-c1nc(NCC(c2ccccc2)c2ccncc2)c2ccccc2n1 (centres unmarked) [SRI-31142]
subjectOfTest: dopamine transporter (DAT) (Rattus norvegicus (Rat))
measuredEndpoint: Emax
experimentalValue: 72

compound: OC(CNc1nc(-c2cnc3nccn3c2)nc2ccccc12)(c1ccccc1)c1ccccc1 [SRI-30508]
subjectOfTest: dopamine transporter (DAT) (Rattus norvegicus (Rat))
measuredEndpoint: Emax
experimentalValue: 65

compound: c1ccc(C(CNc2nc(-c3cnc4nccn4c3)nc3ccccc23)C2CCCCC2)cc1 (centres unmarked) [SRI-30517]
subjectOfTest: dopamine transporter (DAT) (Rattus norvegicus (Rat))
measuredEndpoint: Emax
experimentalValue: 70

compound: c1ccc(C(CNc2nc(-c3cccnc3)nc3ccccc23)c2ccccc2)cc1 [SRI-29072]
subjectOfTest: dopamine transporter (DAT) (Rattus norvegicus (Rat))
measuredEndpoint: Emax
experimentalValue: 71

compound: c1ccc(C(CNc2nc(-c3cnc4nccn4c3)nc3ccccc23)c2ccccc2)cc1 [SRI-29991]
subjectOfTest: dopamine transporter (DAT) (Rattus norvegicus (Rat))
measuredEndpoint: Emax
experimentalValue: 68

compound: CN(C)c1ncc(-c2nc(NCC(O)(c3ccccc3)c3ccccc3)c3ccccc3n2)cn1 [SRI-29982]
subjectOfTest: dopamine transporter (DAT) (Rattus norvegicus (Rat))
measuredEndpoint: Emax
experimentalValue: 73

compound: Cc1cc2nccn2cc1-c1nc(NCC(c2ccccc2)c2ccccc2)c2ccccc2n1 [SRI-30827]
subjectOfTest: dopamine transporter (DAT) (Rattus norvegicus (Rat))
measuredEndpoint: Emax
experimentalValue: 63

---

subjectOfTest: dopamine transporter (DAT) (Rattus norvegicus (Rat))
testDetails: [3H]dopamine (DA) uptake inhibition in rat brain (caudate) synaptosomes
conditionsUsed: mean ± S.D.; n = 3
pIC50: −log10 of the molar value.
The reader will find reported pIC50 values listed item by item below.
measuredEndpoint: pIC50

moleculeSmiles: c1ccc(C(CCNc2nc(-c3ccc4[nH]ccc4c3)nc3ccccc23)c2ccccc2)cc1
measuredEndpoint: pIC50
experimentalValue: 7.80
--
moleculeSmiles: CN(C)c1ncc(-c2nc(NCCC(c3ccccc3)c3ccccc3)c3ccccc3n2)cn1
measuredEndpoint: pIC50
experimentalValue: 6.17
--
moleculeSmiles: c1ccc(C(CCNc2nc(-c3cccnc3)nc3ccccc23)c2ccccc2)cc1
measuredEndpoint: pIC50
experimentalValue: 6.76
--
moleculeSmiles: c1ccc(C(CNc2nc(-c3cccnc3)nc3ccccc23)c2ccccc2)cc1
measuredEndpoint: pIC50
experimentalValue: 6.67

---

subjectOfTest: UniProt:Q63380
testDetails: [3H]norepinephrine (NE) uptake inhibition in rat brain synaptosomes
Format: biochemical
conditionsUsed: read-out: NET Uptake Emax
As shown below, each of these compounds has a reported Emax value.
measuredEndpoint: Emax (%)

compound: Cc1cc(NS(C)(=O)=O)ccc1-c1nc(NCC(c2ccccc2)c2ccncc2)c2ccccc2n1 (stereo not shown)
measuredEndpoint: Emax
experimentalValue: 71
//
compound: c1ccc(C(CNc2nc(-c3cnc4nccn4c3)nc3ccccc23)c2ccccn2)cc1 (stereo not shown)
measuredEndpoint: Emax
experimentalValue: 77
//
compound: CNc1ncc(-c2nc(NCC(c3ccccc3)c3ccccc3)c3ccccc3n2)cn1
measuredEndpoint: Emax
experimentalValue: 78
//
compound: c1ccc(C(CNc2nc(-c3cnc4nccn4c3)nc3ccccc23)C2CCCCC2)cc1 (stereo not shown)
measuredEndpoint: Emax
experimentalValue: 70

---

subjectOfTest: dopamine transporter (DAT) (Rattus norvegicus (Rat), UniProt P23977)
testDetails: [3H]dopamine (DA) uptake inhibition in rat brain (caudate) synaptosomes
Assay type: biochemical
conditionsUsed: rat caudate synaptosomes, 5 nM [3H]dopamine, mean ± SD
measuredEndpoint: DA Uptake Emax

compound: CS(=O)(=O)Nc1ccc(-c2nc(NCC(c3ccccc3)N3CCOCC3)c3ccccc3n2)cc1 (centres unmarked)
experimentalValue: 71 ± 4 % I
--
compound: CN(C)c1ccc(-c2nc(NCCc3ccccc3)c3ccccc3n2)cc1
experimentalValue: 100 ± 1 % I
--
compound: CS(=O)(=O)Nc1ccc(-c2nc(NCC(c3ccccc3)N3CCCCC3)c3ccccc3n2)cc1 (centres unmarked)
experimentalValue: 83 ± 5 % I
--
compound: Cc1cc(N(C)C)ccc1-c1nc(NCC(c2ccccc2)c2ccc(CO)[nH]2)c2ccccc2n1 (centres unmarked)
experimentalValue: 84 ± 5 % I
--
compound: CS(=O)(=O)Nc1ccc(-c2nc(NC(CCc3ccccc3)c3ccccc3)c3ccccc3n2)cc1 (centres unmarked)
experimentalValue: 72 ± 2 % I
--
compound: Cc1cc(NS(C)(=O)=O)ccc1-c1nc(NCC(c2ccccc2)c2ccncc2)c2ccccc2n1 (centres unmarked)
experimentalValue: 74 ± 4 % I
--
compound: CN(C)c1ccc(-c2nc(NCC(c3ccccn3)c3ccc[nH]3)c3ccccc3n2)cc1 (centres unmarked)
experimentalValue: 89 ± 4 % I
--
compound: CS(=O)(=O)Nc1ccc(-c2nc(NCC(Cc3ccccc3)c3ccccc3)c3ccccc3n2)cc1 (centres unmarked)
experimentalValue: 76 ± 2 % I
--
compound: CS(=O)(=O)Nc1ccc(-c2nc(NCC(c3ccccc3)c3ccc[nH]3)c3ccccc3n2)cc1 (centres unmarked)
experimentalValue: 63 ± 2 % I
--
compound: CN(C)c1ccc(-c2nc(NCC(c3cccnc3)c3ccc[nH]3)c3ccccc3n2)cc1 (centres unmarked)
experimentalValue: 85 ± 4 % I
--
compound: CN(C)c1ccc(-c2nc(NC(CCc3ccccc3)c3ccccc3)c3ccccc3n2)cc1 (centres unmarked)
experimentalValue: 70 ± 4 % I
--
compound: Cc1cc(NS(C)(=O)=O)ccc1-c1nc(NCC(c2ccncc2)c2ccncc2)c2ccccc2n1
experimentalValue: 67 ± 4 % I
--
compound: CN1CCN(C(CNc2nc(-c3ccc(N(C)C)cc3)nc3ccccc23)c2ccccc2)CC1 (centres unmarked)
experimentalValue: 91 ± 4 % I
--
compound: CS(=O)(=O)Nc1ccc(-c2nc(NCC(c3cccnc3)c3ccc[nH]3)c3ccccc3n2)cc1 (centres unmarked)
experimentalValue: 79 ± 3 % I
--
compound: CS(=O)(=O)Nc1ccc(-c2nc(NCC(c3ccncc3)c3ccncc3)c3ccccc3n2)cc1
experimentalValue: 70 ± 2 % I
--
compound: CS(=O)(=O)Nc1ccc(-c2nc(NCC(c3ccccc3)n3ccnc3)c3ccccc3n2)cc1 (centres unmarked)
experimentalValue: 70 ± 3 % I
--
compound: CS(=O)(=O)Nc1ccc(-c2nc(NCC(c3ccccc3)N3CCCC3)c3ccccc3n2)cc1 (centres unmarked)
experimentalValue: 79 ± 5 % I
--
compound: CS(=O)(=O)Nc1ccc(-c2nc(NC(Cc3ccccc3)c3ccccc3)c3ccccc3n2)cc1 (centres unmarked)
experimentalValue: 69 ± 3 % I
--
compound: CC(CNc1nc(-c2ccc(NS(C)(=O)=O)cc2)nc2ccccc12)(c1ccccc1)c1ccccc1
experimentalValue: 67 ± 2 % I
--
compound: CN(C)c1ccc(-c2nc(NCC(C)(c3ccccc3)c3ccccc3)c3ccccc3n2)cc1
experimentalValue: 68 ± 3 % I
--
compound: CN(C)c1ccc(-c2nc(NCC(O)(c3ccccc3)c3ccccc3)c3ccccc3n2)cc1
experimentalValue: 74 ± 2 % I
--
compound: CN(C)c1ccc(-c2nc(NCC(c3ccccc3)c3ccccn3)c3ccccc3n2)cc1 (centres unmarked)
experimentalValue: 91 ± 4 % I
--
compound: CN(C)c1ccc(-c2nc(NCC(c3ccccc3)N3CCCCC3)c3ccccc3n2)cc1 (centres unmarked)
experimentalValue: 88 ± 4 % I
--
compound: CS(=O)(=O)Nc1ccc(-c2nc(NCC(c3ccccc3)C3CCCCC3)c3ccccc3n2)cc1 (centres unmarked)
experimentalValue: 75 ± 2 % I
--
compound: CN(C)c1ccc(-c2nc(NCC(c3ccccc3)c3cccnc3)c3ccccc3n2)cc1 (centres unmarked)
experimentalValue: 79 ± 3 % I
--
compound: CN(C)c1ccc(-c2nc(NCC(c3ccccc3)N3CCCC3)c3ccccc3n2)cc1 (centres unmarked)
experimentalValue: 92 ± 4 % I
--
compound: CC(C)C(CNc1nc(-c2ccc(N(C)C)cc2)nc2ccccc12)c1ccccc1 (centres unmarked)
experimentalValue: 84 ± 5 % I
--
compound: CN(C)c1ccc(-c2nc(NCC(c3ccncc3)c3ccncc3)c3ccccc3n2)cc1
experimentalValue: 78 ± 3 % I
--
compound: CS(=O)(=O)Nc1ccc(-c2nc(NCC(Oc3ccccc3)c3ccccc3)c3ccccc3n2)cc1 (centres unmarked)
experimentalValue: 67 ± 2 % I
--
compound: CS(=O)(=O)Nc1ccc(-c2nc(NCC(c3ccccc3)c3ccccn3)c3ccccc3n2)cc1 (centres unmarked)
experimentalValue: 90 ± 3 % I
--
compound: CN(C)c1ccc(-c2nc(NCC(c3ccccc3)c3ncccn3)c3ccccc3n2)cc1 (centres unmarked)
experimentalValue: 91 ± 3 % I
--
compound: CS(=O)(=O)Nc1ccc(-c2nc(NCC(c3ccccc3)c3ccncc3)c3ccccc3n2)cc1 (centres unmarked)
experimentalValue: 71 ± 1 % I
